System: spontaneously hypertensive male rats, strain SHR
Assay: Anti-hypertensive activity: change in blood pressure (BP) in SHR rats
Format: in vivo, rat
Conditions: 1 mg/kg os, 4th day, 1 hour after dosing
quantityMeasured: Change in BP (mmHg)

• CO[C@]12C[C@@H](C(=O)N(C(=O)NC(C)(C)C)C(C)(C)C)CN(C)[C@@H]1Cc1cn(C)c3cccc2c13 = -43
• CC(C)NC(=O)N(C(=O)[C@@H]1C[C@@H]2c3cccc4[nH]cc(c34)C[C@H]2N(C)C1)C(C)C = -40
• CN1C[C@H](C(=O)N(C(=O)NC(C)(C)C)C(C)(C)C)C[C@@H]2c3cccc4c3c(cn4C)C[C@H]21 = -8
• NNc1nncc2ccccc12 [Hydralazine, reference compound] = -5
